System: HBV
Test: Anti-HBV activity in HepG2
Assay type: cell-based
# TI (CC50/EC50), HBV annotations
reportedEndpoint: TI (CC50/EC50), HBV

smilesCode: C[C@H](Cn1cnc2c(N)ncnc21)OCP(=O)(O)OCCCCS
studySystem: HBV
result: > 1

smilesCode: CCCCCCCCCCCCCCCCSSCCCCOP(=O)(O)CO[C@H](C)Cn1cnc2c(N)ncnc21
studySystem: HBV
result: >200

smilesCode: CCCCCCCCCCCCCCCCSSCCOP(=O)(O)CO[C@H](C)Cn1cnc2c(N)ncnc21
studySystem: HBV
result: > 1200

smilesCode: C[C@H](Cn1cnc2c(N)ncnc21)OCP(=O)(O)OCCS
studySystem: HBV
result: >2

* * *

Test system: HIV-1
Experiment: Anti-HIV-1 activity in HIV-infected PBMCs
Conditions: HIV-1, PBMCs
# TI (CC50/EC50), HIV-1 annotations

compound: C[C@H](Cn1cnc2c(N)ncnc21)OCP(=O)(O)O [TFV, tenofovir, reference compound]
studySystem: HIV-1
TI (CC50/EC50), HIV-1: >300

compound: C[C@H](Cn1cnc2c(N)ncnc21)OCP(=O)(O)OCCS
studySystem: HIV-1
TI (CC50/EC50), HIV-1: >5.38

compound: CCCCCCCCCCCCCCCCSSCc1ccccc1COP(=O)(O)CO[C@H](C)Cn1cnc2c(N)ncnc21
studySystem: HIV-1
TI (CC50/EC50), HIV-1: >31800

compound: CCCCCCCCCCCCCCCCSSCCCCOP(=O)(O)CO[C@H](C)Cn1cnc2c(N)ncnc21
studySystem: HIV-1
TI (CC50/EC50), HIV-1: >100000
